molecular target: human TMEM16A (TMEM16Aabc variant) (Homo sapiens, UniProt Q5XXA6, DEL476-501, form not given); assay: Automated whole-cell patch clamp (Qpatch) TMEM16A potentiator assay in FRT cells stably expressing human TMEM16A; details: calculated EC50, Qpatch TMEM16A current at +70 mV
Sequence (Q5XXA6 with tags, fused parts or gaps DEL476-501): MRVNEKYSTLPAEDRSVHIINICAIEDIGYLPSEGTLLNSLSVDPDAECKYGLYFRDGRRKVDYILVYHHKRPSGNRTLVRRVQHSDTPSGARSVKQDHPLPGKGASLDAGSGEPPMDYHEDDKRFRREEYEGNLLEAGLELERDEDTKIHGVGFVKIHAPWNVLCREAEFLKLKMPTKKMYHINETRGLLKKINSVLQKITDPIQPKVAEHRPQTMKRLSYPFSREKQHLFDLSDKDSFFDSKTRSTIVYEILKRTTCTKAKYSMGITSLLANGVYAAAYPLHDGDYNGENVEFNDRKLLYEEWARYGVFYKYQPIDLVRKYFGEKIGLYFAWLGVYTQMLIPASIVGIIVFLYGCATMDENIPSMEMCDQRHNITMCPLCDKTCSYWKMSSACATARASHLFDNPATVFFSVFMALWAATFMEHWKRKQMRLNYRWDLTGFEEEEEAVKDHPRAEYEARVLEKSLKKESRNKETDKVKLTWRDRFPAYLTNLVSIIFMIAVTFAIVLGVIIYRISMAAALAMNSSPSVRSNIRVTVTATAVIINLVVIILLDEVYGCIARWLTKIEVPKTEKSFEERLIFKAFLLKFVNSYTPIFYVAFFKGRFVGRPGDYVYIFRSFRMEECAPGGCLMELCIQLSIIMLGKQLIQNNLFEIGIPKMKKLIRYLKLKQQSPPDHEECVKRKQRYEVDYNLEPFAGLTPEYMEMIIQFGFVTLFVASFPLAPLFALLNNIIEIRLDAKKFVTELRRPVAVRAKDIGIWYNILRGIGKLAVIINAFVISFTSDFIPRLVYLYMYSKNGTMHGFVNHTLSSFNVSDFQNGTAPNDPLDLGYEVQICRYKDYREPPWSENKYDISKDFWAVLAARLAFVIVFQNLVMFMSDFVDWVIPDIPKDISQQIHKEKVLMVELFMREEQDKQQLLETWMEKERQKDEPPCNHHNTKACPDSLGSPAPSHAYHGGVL
measured endpoint: EC50 (nM)

>>> print(df.to_string())
                                    compound  measured_endpoint  reported_value
 0  O=C(Cc1cc(F)ccc1O)Nc1cccc(C(=O)NC2CCCCC2)c1               EC50             220
 1  C#CC(C)(C)NC(=O)c1cccc(NC(=O)Cc2cc(Cl)ccc2O)c1               EC50             180
 2  O=C(Cc1cc(Cl)ccc1O)Nc1ccnc(C(=O)N[C@H]2CCCC[C@H]2CO)c1               EC50             610
 3  Cc1ccccc1CC(=O)Nc1ccnc(C(=O)NC(C)(C)C)c1               EC50            1230
 4  C#CC(C)(C)NC(=O)c1cccc(NC(=O)Cc2cc(F)ccc2O)c1               EC50             410
 5  CC(C)(C)NC(=O)c1cccc(NC(=O)Cc2ccc(F)cc2O)c1               EC50             590
 6  O=C(Cc1cc(Cl)ccc1O)Nc1ccnc(C(=O)NC2(CO)CCOC2)c1 (racemic)               EC50             190
 7  COC(=O)C1(NC(=O)c2cc(NC(=O)Cc3cc(Cl)ccc3O)ccn2)CCOCC1               EC50             230
 8  CC1(NC(=O)c2cccc(NC(=O)Cc3cc(Cl)ccc3O)c2)CCN(C(=O)OC(C)(C)C)CC1               EC50            1960
 9  CC(C)(C)NC(=O)c1cc(NC(=O)Cc2cc(Cl)c(CN3CCC(F)(F)C3)cc2O)ccn1               EC50             290
10  O=C(Cc1ccccc1Cl)Nc1ccnc(C(=O)NC23CC(F)(C2)C3)c1               EC50             470
11  CC(C)(CCNCC(F)(F)F)NC(=O)c1cc(NC(=O)Cc2cc(Cl)ccc2O)ccn1               EC50             700
12  CC(C)(C)OC(=O)N1CCCC(NC(=O)c2cccc(NC(=O)Cc3cc(Cl)ccc3O)c2)C1 (centres unmarked)               EC50            3020
13  O=C(Cc1cc(Cl)ccc1O)Nc1cccc(C(=O)NC23CC4CC(CC(C4)C2)C3)c1               EC50             540
14  CC(C)(C)C1CCC(NC(=O)c2cc(NC(=O)Cc3cc(Cl)ccc3O)ccn2)CC1 (centres unmarked)               EC50              60
15  CC(C(=O)Nc1cccc(C(=O)NC(C)(C)C)c1)c1ccccc1O (centres unmarked)               EC50            8190
16  CC(C)(C)c1ccc(CC(=O)Nc2ccnc(C(=O)NC3(C#N)CCOCC3)c2)cc1O               EC50              60
